- Tested on: Aspergillus niger
- Assay Method Text: Antifungal activity against Aspergillus niger NCIM 1196 by agar method
- Assay type: functional

# Compound, Target Or System, MIC (µg/mL)
rows = [
    ("Clc1ccc(-c2nnc(CN3CCc4ccsc4C3)o2)cc1", "Aspergillus niger", 100),
    ("c1c[nH]c(-c2nnc(CN3CCc4ccsc4C3)o2)c1", "Aspergillus niger", 120),
    ("c1csc(-c2nnc(CN3CCc4ccsc4C3)o2)c1", "Aspergillus niger", 80),
    ("Clc1ccccc1-c1nnc(CN2CCc3ccsc3C2)o1", "Aspergillus niger", 140),
    ("c1ccc(-c2nnc(CN3CCc4ccsc4C3)o2)nc1", "Aspergillus niger", 60),
    ("COc1ccc(-c2nnc(CN3CCc4ccsc4C3)o2)cc1", "Aspergillus niger", 140),
    ("Oc1ccc(-c2nnc(CN3CCc4ccsc4C3)o2)cc1O", "Aspergillus niger", 100),
    ("c1ccc(-c2nnc(CN3CCc4ccsc4C3)o2)cc1", "Aspergillus niger", 160),
    ("Clc1ccc(-c2nnc(CN3CCc4ccsc4C3)o2)c(Cl)c1", "Aspergillus niger", 60),
    ("Fc1ccc(-c2nnc(CN3CCc4ccsc4C3)o2)cc1", "Aspergillus niger", 60),
    ("Clc1ccc(COC(Cn2ccnc2)c2ccc(Cl)cc2Cl)c(Cl)c1 (stereo not drawn) [MICONAZOLE]", "Aspergillus niger", 12.5),
    ("Clc1cccc(Cl)c1-c1nnc(CN2CCc3ccsc3C2)o1", "Aspergillus niger", 120),
    ("Oc1ccc(-c2nnc(CN3CCc4ccsc4C3)o2)cc1", "Aspergillus niger", 140),
]
